Listed next: entries and their corresponding Inhibition.
System: Plasmodium falciparum
Assay: GSK_TCMDC: Inhibition of Plasmodium falciparum 3D7 in whole red blood cells, using parasite LDH activity as an index of growth. Test compounds present at 2uM
Format: functional
Answer in %, number only, no unit symbol.

INSERT INTO assay_data (molecule, system_under_test, measured) VALUES
  ('CCn1c(C=Cc2cc(Br)ccc2O)nc2ccccc2c1=O', 'Plasmodium falciparum', 95);

Using the record for `COc1ccc(CNCc2ccc(-c3ccc(-c4nc5cccc(C)c5[nH]4)cc3)cc2)cc1.O=C(O)C(F)(F)F` , report its Inhibition. 100

Using the record for CCCCCC(C)C(C)c1cc(O)c2c(c1)OC(C)(C)CC2=Cc1ccncc1 (centres undefined) , report its Inhibition. 100

Using the record for `Clc1ccc(-c2cc3c(NCc4ccncc4)nccc3s2)cc1` , report its Inhibition. 98

Using the record for `COc1ccc2c(ccc3c2ncc2c(=O)n(-c4ccccc4)[nH]c23)c1` , report its Inhibition. 95

Using the record for `COc1ccccc1NS(=O)(=O)c1cc(C(=O)Nc2ccc(N3CCOCC3)c(S(=O)(=O)Nc3ccccc3Cl)c2)ccc1Cl` , report its Inhibition. 97

Using the record for `Clc1ccc(-c2cnc3ccc(NCCc4cccnc4)nn23)cc1` , report its Inhibition. 97

Using the record for CC1CN(c2cnn(C/C=C/c3ccc(NC(=O)c4ccc([N+](=O)[O-])cc4)cc3)c(=O)c2Cl)CC(C)N1.O=C(O)C(F)(F)F (centres undefined) , report its Inhibition. 96

Using the record for `CC(C)CNCc1ccc(-c2cccc(CNC3CCN(Cc4ccccc4)CC3)c2)cc1.O=C(O)C(F)(F)F` , report its Inhibition. 100

Using the record for `CN1CCN(Cc2ccc(-c3ccc4c(Nc5ccc(Cl)cc5F)ccnc4c3)o2)CC1` , report its Inhibition. 100

Using the record for `Cc1[nH]c2ccc(-c3ccccc3)cc2c(=O)c1Br` , report its Inhibition. 97

---

Tested on: Plasmodium falciparum
Test: GSK_TCMDC: Inhibition of Plasmodium falciparum Dd2 in whole red blood cells, using parasite LDH activity as an index of growth. Test compounds present at 2uM
Type: functional
quantity name: Inhibition (%)
Answer in %, number only, no unit symbol.

INSERT INTO results (compound, units_label, measured) VALUES
  ('CC(C)CCC[C@@H]([C@@H](CC1CCCCC1)C(=O)N[C@@H](CCCCNC(=O)OCc1ccccc1)C(=O)Nc1nccs1)N(O)C=O', '%', 90),
  ('Cc1cc(NC(=O)c2cccs2)ccc1OC1CCN(Cc2ccc(F)cc2)C1.O=C(O)C(F)(F)F (stereo unspecified)', '%', 92),
  ('Cn1nc(-c2ccc(Cl)cc2)c2cc(C(=O)NCCN3CCOCC3)sc21', '%', 29),
  ('CC1(C)N=C(N)N=C(N)N1c1cccc(Cl)c1.Cl', '%', 96),
  ('O=C1Nc2cccc3c2C1(CCCCN1CCC(c2c(-c4ccccc4)[nH]c4ccccc24)CC1)CCC3 (stereo unspecified)', '%', 33),
  ('COc1cc2c(cc1O)[C@@H]1[C@H](O)[C@@H](O)C=C3CCN(C2)[C@H]31 [PSEUDOLYCORINE]', '%', 31);

Look up Inhibition with Plasmodium falciparum for this compound: COc1ccccc1C1CCN(C2CCC(NC(=O)/C=C/c3cc(F)cc(C(F)(F)F)c3)CC2)CC1 (stereo unspecified) 57

Look up Inhibition with Plasmodium falciparum for this compound: COC(=O)C(Cc1ccccc1)C(CSCc1ccc(OC)cc1)C(=O)N[C@@H](C(=O)OC(C)(C)C)c1ccc(C(C)(C)C)cc1 (stereo partly specified) 44

Look up Inhibition with Plasmodium falciparum for this compound: CCCc1cc(=O)[nH]c(-n2nc(C)cc2NC(=O)C(CC)c2ccccc2)n1 (stereo unspecified) 63

Look up Inhibition with Plasmodium falciparum for this compound: `N=C(N)NN=Cc1ccccc1OCc1ccccc1Cl` 30

Look up Inhibition with Plasmodium falciparum for this compound: CC(Cc1ccc(NC(=O)c2ccc(CNCCc3ccccc3)cc2)cc1)NCCc1cccc(Cl)c1.Cl (stereo unspecified) 99
